System: MCF7
Test Details: Cytotoxicity against human MCF7 cells after 48 hrs by MTT assay
Format: functional, cell-based
Condition: MCF7, 48 h
Strictly below 7 µM in IC50: Criterion met. Otherwise: Criterion not met.

{"Structure Notation": "CC(=O)n1c(=C(C#N)C#N)c2cccc3cccc1c32", "Class Name": "Criterion met"}

Request: Consider "N#CC(C#N)=c1c2cccc3cccc(c32)n1C(=O)c1ccccc1" . Does its IC50 lie strictly below 7 µM?
Result: Criterion not met

Request: Report whether reported IC50 is lower than 7 µM (strictly) for "C#CCn1c(=C(C#N)C#N)c2cccc3cccc1c32"
Result: Criterion not met

Request: Hello, I'm reviewing records and need to know if IC50 of "N#CC(C#N)=c1c2cccc3cccc(c32)n1CCBr" is below 7 µM. Could you check?
Result: Criterion met

Request: Regarding "C=CCn1c(=C(C#N)C#N)c2cccc3cccc1c32" , kindly confirm whether its IC50 is beneath 7 µM.
Result: Criterion met

Request: Input "N#CCn1c(=C(C#N)C#N)c2cccc3cccc1c32" ; condition: IC50 strictly below 7 µM. Does it hold?
Result: Criterion not met
